The origin of these recorded values is PubChem BioAssay AID1220.

target: Mannose-6-phosphate isomerase (Homo sapiens) (UniProt P34949); test: MPI inhibition at elevated mannose 6-phosphate – biochemical, fluorescence intensity, high mannose 6-phosphate, primary screen (AID 1220); conditions: recombinant PMI enzyme, coupled fluorescence intensity; at 20 µM
Sequence (P34949 whole entry, looked up): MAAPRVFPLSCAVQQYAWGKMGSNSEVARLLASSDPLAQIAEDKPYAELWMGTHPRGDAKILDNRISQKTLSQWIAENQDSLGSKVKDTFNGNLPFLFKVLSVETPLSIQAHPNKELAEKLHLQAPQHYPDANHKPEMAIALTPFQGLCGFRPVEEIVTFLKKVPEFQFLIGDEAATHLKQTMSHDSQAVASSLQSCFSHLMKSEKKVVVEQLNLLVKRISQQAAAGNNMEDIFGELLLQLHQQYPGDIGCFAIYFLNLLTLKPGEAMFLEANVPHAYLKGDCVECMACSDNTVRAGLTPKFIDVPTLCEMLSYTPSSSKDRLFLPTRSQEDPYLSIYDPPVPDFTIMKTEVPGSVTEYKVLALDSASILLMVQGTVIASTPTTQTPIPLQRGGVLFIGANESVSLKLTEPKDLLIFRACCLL
The whole screen tested about 190,000 compounds, of which about 1,300 (0.68%) were called active. Cut-off read from the data, not from the text of the source: active = inhibition above about 50%; inactive = the rest. The list comes from a sample in which actives are over-represented; it also holds close analogues and randomly drawn compounds.
A correct response names exactly one class from active, inactive

compound: CN1C(=O)C(=Cc2ccccc2OCc2ccccc2Cl)C(=O)N(C)C1=O
label.class: inactive
--
compound: COc1cc2c(cc1OC)-c1c(OC)c(OC)cc3c1C(C2)N(C)CC3 (stereo not given)
label.class: inactive
--
compound: O=C(CN1CCOCC1)NCC(=O)Nc1ccc(Br)cc1C(=O)c1ccccc1
label.class: inactive

Q. So what was the verdict on "COc1cc2c(cc1OC)-c1c(OC)c(OC)cc3c1[C@H](C2)N(C)CC3" in this test?
A. inactive

Q. So what was the verdict on CCSc1cc(C2C(C#N)=C(N)Oc3n[nH]c(C)c32)c(C)o1 (stereo not given) in this test?
A. inactive

Q. So what was the verdict on "O=C1/C(=C/c2cc([N+](=O)[O-])ccc2Cl)N2CCC1CC2" in this test?
A. inactive
